- Measured target: interaction between p53 and MDM2 proteins (recombinant GST-tagged MDM2, p53 peptide) (Homo sapiens, UniProt Q00987)
- Sequence (Q00987 whole entry): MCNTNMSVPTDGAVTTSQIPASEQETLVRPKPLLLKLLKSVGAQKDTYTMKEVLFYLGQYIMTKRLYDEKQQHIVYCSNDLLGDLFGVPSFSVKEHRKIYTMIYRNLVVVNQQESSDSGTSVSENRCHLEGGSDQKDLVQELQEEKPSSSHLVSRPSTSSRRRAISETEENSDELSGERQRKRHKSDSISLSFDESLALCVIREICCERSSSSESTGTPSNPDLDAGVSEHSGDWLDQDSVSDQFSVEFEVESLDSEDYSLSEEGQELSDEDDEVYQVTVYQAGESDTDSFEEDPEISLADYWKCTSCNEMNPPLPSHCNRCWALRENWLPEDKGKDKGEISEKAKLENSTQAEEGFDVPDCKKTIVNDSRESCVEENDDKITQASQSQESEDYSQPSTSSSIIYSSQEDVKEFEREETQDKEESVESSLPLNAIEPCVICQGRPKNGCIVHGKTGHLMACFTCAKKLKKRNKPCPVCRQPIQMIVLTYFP
- Procedure text: HTRF assay of inhibition of the p53-MDM2 interaction (GST-MDM2 binding to biotinylated p53 peptide)
- Experimental parameters: 0.02% BSA
Recorded metric: IC50 (nM)

INSERT INTO assay_data (molecule, recorded_metric, reported_result) VALUES
  ('C[C@@H]1C(=O)N[C@H](c2cccc(Cl)c2)[C@@]2(C(=O)Nc3cc(Cl)ccc32)[C@@H]1c1cccc(Cl)c1 (racemic)', 'IC50', 1810),
  ('O=C1C[C@@H](c2cccc(Cl)c2)[C@]2(C(=O)Nc3cc(Cl)ccc32)[C@@H](c2ccccc2)N1 (racemic) [Example 14b]', 'IC50', 440);

P = CCN1C(=O)C[C@@H](c2cccc(Cl)c2)[C@]2(C(=O)Nc3cc(Cl)ccc32)[C@H]1c1ccccc1C (racemic) [Example 26b]
Q = O=C1C[C@H](C2CCCC2)[C@@]2(C(=O)Nc3cc(Cl)ccc32)[C@H](c2cccc(Cl)c2)N1 (racemic)
Compare IC50: is it lower for P or for Q ? Choose, then provide that item's label.
P
(P: 490 nM, Q: 2430 nM)
